- System tested: M-phase inducer phosphatase 2 (Homo sapiens, UniProt P30305)
- Sequence (P30305 whole entry): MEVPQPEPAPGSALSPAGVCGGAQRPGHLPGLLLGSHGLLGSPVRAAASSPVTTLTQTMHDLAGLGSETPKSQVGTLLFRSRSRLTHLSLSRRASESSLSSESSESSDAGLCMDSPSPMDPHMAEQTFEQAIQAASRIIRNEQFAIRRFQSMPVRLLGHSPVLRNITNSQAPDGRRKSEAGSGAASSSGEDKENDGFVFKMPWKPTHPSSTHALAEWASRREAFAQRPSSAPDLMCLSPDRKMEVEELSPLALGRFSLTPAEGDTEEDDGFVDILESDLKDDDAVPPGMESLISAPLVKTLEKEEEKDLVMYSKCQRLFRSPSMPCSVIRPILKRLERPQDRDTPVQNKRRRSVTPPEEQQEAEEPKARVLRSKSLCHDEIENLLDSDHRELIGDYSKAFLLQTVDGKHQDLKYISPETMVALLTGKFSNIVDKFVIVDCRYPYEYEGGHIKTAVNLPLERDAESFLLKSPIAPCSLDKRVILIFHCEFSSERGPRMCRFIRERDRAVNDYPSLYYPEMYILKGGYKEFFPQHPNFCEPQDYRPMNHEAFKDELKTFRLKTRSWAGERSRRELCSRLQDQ
- Procedure details: Enzymatic Assay
- Stated conditions: pH 6.5; 30 °C
Measure name: IC50 (µM)
Provide the reading as a plain figure in µM.

Q: Notebook entry, M-phase inducer phosphatase 2 (Homo sapiens, UniProt P30305) assay: IC50 of O=C1CC(c2cccc(C(F)(F)F)c2)Oc2cc(O)cc(O)c21 (stereo unspecified) = ?
Result: 8.54

----------
- System tested: Tyrosine-protein phosphatase non-receptor type 2 (Homo sapiens)
- Sequence (P17706 whole entry): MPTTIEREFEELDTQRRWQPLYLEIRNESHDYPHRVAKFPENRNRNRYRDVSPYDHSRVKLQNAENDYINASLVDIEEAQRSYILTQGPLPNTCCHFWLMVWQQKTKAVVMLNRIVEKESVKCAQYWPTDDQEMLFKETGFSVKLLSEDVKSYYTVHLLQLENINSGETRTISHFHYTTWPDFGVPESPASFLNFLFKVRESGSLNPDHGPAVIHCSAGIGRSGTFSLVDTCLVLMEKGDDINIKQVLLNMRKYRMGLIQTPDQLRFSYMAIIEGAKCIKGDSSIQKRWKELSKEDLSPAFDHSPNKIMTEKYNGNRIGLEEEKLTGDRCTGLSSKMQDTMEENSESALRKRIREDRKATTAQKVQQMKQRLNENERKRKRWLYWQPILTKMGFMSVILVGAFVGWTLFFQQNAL
Measure name: IC50 (µM)
The response must be a number in µM with no trailing unit.

Q: Test system Tyrosine-protein phosphatase non-receptor type 2 (Homo sapiens); read-out IC50; what value for O=C1CC(c2cccc(C(F)(F)F)c2)Oc2cc(O)cc(O)c21 (stereo unspecified) ?
Result: 8.82

From: BindingDB's records for doi:10.3109/14756366.2012.723206
